molecular target: Human immunodeficiency virus type 1 protease (Human immunodeficiency virus 1, UniProt Q72874); assay: Binding affinity against HIV-1 protease was determined
// reported Ki per item

| Compound | Op | Ki [µM] |
| --- | --- | --- |
| COc1ccc(S(=O)(=O)N(CC2CCCC2)C[C@@H](O)CN(CCc2ccccc2)C(=O)NCc2ccccc2)cc1 | = | 0.022 |
| COc1ccc(S(=O)(=O)N(CC2CCCC2)C[C@@H](O)CN(CCc2ccccc2)C(=O)NC2CCc3ccccc32)cc1 (stereo partly drawn) | > | 10 |
| COc1ccc(S(=O)(=O)N(CC2CCCC2)C[C@@H](O)CN(CCc2ccccc2)C(=O)Nc2cccc(OC)c2)cc1 | > | 10 |
| COc1ccc(S(=O)(=O)N(CC2CCCC2)C[C@@H](O)CN(CCc2ccccc2)C(=O)NC(C)(C)C)cc1 | = | 2.1 |
| CNC(=O)N(CCc1ccccc1)C[C@H](O)CN(CC1CCCC1)S(=O)(=O)c1ccc(OC)cc1 | = | 3.4 |
| COc1ccc(S(=O)(=O)N(CC2CCCC2)C[C@@H](O)CN(CCc2ccccc2)C(=O)NC(C)C)cc1 | > | 10 |
| COc1ccc(S(=O)(=O)N(CC2CCCC2)C[C@@H](O)CN(CCc2ccccc2)C(=O)Nc2ccccc2)cc1 | > | 20 |
| COc1ccc(S(=O)(=O)N(CC2CCCC2)C[C@@H](O)CN(CCc2ccccc2)C(=O)N[C@H]2c3ccccc3C[C@H]2O)cc1 | = | 0.043 |

----------
biological target: UniProt Q72874; experiment: Binding affinity to HIV-1 protease was determined
// reported Ki per item

| Molecule | Units Label | Ki |
| --- | --- | --- |
| COc1ccc(S(=O)(=O)N(CC2CCCC2)C[C@@H](O)CN(CCc2ccccc2)C(=O)Cc2cccc(NS(N)(=O)=O)c2C)cc1 | nM | 680 |
| COc1ccc(S(=O)(=O)N(CC2CCCC2)C[C@@H](O)CN(CCc2ccccc2)C(=O)OCc2cncs2)cc1 | nM | 38 |
| COc1ccc(S(=O)(=O)N(CC2CCCC2)C[C@@H](O)CN(CCc2ccccc2)C(=O)Cc2ccccc2)cc1 | nM | 20 |
| COc1ccc(S(=O)(=O)N(CC2CCCC2)C[C@@H](O)CN(CCc2ccccc2)C(=O)O[C@H]2CCOC2)cc1 | nM | 40 |
| COc1ccc(S(=O)(=O)N(CC2CCCC2)C[C@@H](O)CN(CCc2ccccc2)C(=O)CC2CCCC(NS(N)(=O)=O)C2)cc1 (stereo partly specified) | nM | 76 |
| COc1ccc(S(=O)(=O)N(CC2CCCC2)C[C@@H](O)CN(CCc2ccccc2)C(=O)Cc2cccc(NS(N)(=O)=O)c2)cc1 | nM | 29 |
| COc1ccc(S(=O)(=O)N(CC2CCCC2)C[C@@H](O)CN(CCc2ccccc2)C(=O)OC(C)(C)C)cc1 | nM | 125 |
| COc1ccc(S(=O)(=O)N(CC2CCCC2)C[C@@H](O)CN(Cc2ccccc2)C(=O)O[C@H]2CCOC2)cc1 | nM | 600 |
| COc1ccc(S(=O)(=O)N(CC2CCCC2)C[C@@H](O)CN(CCc2ccccc2)C(=O)OC2CCS(=O)(=O)C2)cc1 (stereo partly specified) | nM | 38 |
| COc1ccc(S(=O)(=O)N(CC2CCCC2)C[C@@H](O)CN(CCc2ccccc2)C(=O)OCc2ccncc2)cc1 | nM | 200 |
| COc1ccc(S(=O)(=O)N(CC2CCCC2)C[C@@H](O)CN(CCc2ccccc2)C(=O)Cc2cccc(O)c2C)cc1 | nM | 66 |
| COc1ccc(S(=O)(=O)N(CC2CCCC2)C[C@@H](O)CN(CCc2ccccc2)C(=O)Oc2ccccc2)cc1 | nM | 173 |
| COc1ccc(S(=O)(=O)N(CC2CCCC2)C[C@@H](O)CN(CCc2ccccc2)C(=O)Cc2cncc(NS(N)(=O)=O)c2)cc1 | nM | 220 |
| COc1ccc(S(=O)(=O)N(CC2CCCC2)C[C@@H](O)CN(CCc2ccccc2)C(=O)OCc2cccnc2)cc1 | nM | 17 |
| COc1ccc(S(=O)(=O)N(CC(O)CN(CCc2ccccc2)C(=O)N[C@H](C(=O)OCc2ccccc2)C(C)C)CC2CCCC2)cc1 (single isomer, unassigned) | nM | 7 |
| COc1ccc(S(=O)(=O)N(CC2CCCC2)C[C@@H](O)CN(CCc2ccccc2)C(=O)OC2CCSC2)cc1 (stereo partly specified) | nM | 104 |
| COc1ccc(S(=O)(=O)N(CC2CCCC2)C[C@@H](O)CN(CCc2ccccc2)C(=O)OC2CCCS(=O)(=O)C2)cc1 (stereo partly specified) | nM | 1400 |
| COc1ccc(S(=O)(=O)N(CC2CCCC2)C[C@@H](O)CN(CCc2ccccc2)C(=O)Cc2ccncc2NS(N)(=O)=O)cc1 | nM | 27 |
| COc1ccc(S(=O)(=O)N(CC2CCCC2)C[C@@H](O)CN(CCc2ccccc2)C(=O)O[C@@H]2CO[C@H]3OCC[C@H]32)cc1 | nM | 50 |
| COc1ccc(S(=O)(=O)N(CC2CCCC2)C[C@@H](O)CN(CCc2ccccc2)C(=O)OC2COCOC2)cc1 | nM | 15 |
| COc1ccc(S(=O)(=O)N(CC2CCCC2)C[C@@H](O)CN(CCc2ccccc2)C(=O)OC2CCCSC2)cc1 (stereo partly specified) | nM | 300 |
